Assay: Clinical Pharmacology Study: single 200 mg dose PK, all 3 cohorts
Conditions: human, in vivo, oral, read-out: median Tmax across cohorts
Description: The geometric mean T1/2 following a single 200 mg dose was approximately 40 hours under fed condition.
property measured: Tmax

Q: Consider the molecule shown here: O=C1CC[C@H](N2Cc3cc(N4CCN(CC5CCN(c6ccc([C@@H]7c8ccc(O)cc8CC[C@@H]7c7ccccc7)cc6)CC5)CC4)ccc3C2=O)C(=O)N1 What is its recorded Tmax?
A: 6 to 8 h

----------
Assay: Single-dose oral TK and tolerability study in beagle dogs
Type: in vivo
Conditions: both sexes, beagle, in vivo; dog, 400 mg/kg single oral, sexes combined
property measured: Cmax

Q: Consider the molecule shown here: O=C1CC[C@H](N2Cc3cc(N4CCN(CC5CCN(c6ccc([C@@H]7c8ccc(O)cc8CC[C@@H]7c7ccccc7)cc6)CC5)CC4)ccc3C2=O)C(=O)N1 [Compound A] What is its recorded Cmax?
A: 25000 ng/mL

----------
half-life values for the molecules below.
Assay: clinical
Conditions: human, in vivo, 500 mg
Kindly provide the numeric value in h only, without the unit symbol.

INSERT INTO assay_data (molecule, units, reported_measurement) VALUES
  ('O=C1CC[C@H](N2Cc3cc(N4CCN(CC5CCN(c6ccc([C@@H]7c8ccc(O)cc8CC[C@@H]7c7ccccc7)cc6)CC5)CC4)ccc3C2=O)C(=O)N1 [Compound A]', 'h', 28);

We next turn to a different molecule, shown below.
Q: Consider the molecule shown here: O=C1CC[C@@H](N2Cc3cc(N4CCN(CC5CCN(c6ccc([C@@H]7c8ccc(O)cc8CC[C@@H]7c7ccccc7)cc6)CC5)CC4)ccc3C2=O)C(=O)N1 [Compound B] What is its recorded half-life?
A: 96

----------
Experiment: 3-month GLP oral toxicity study in dogs
Assay type: in vivo, dog
Settings: Beagle, dog, plasma, po; female dogs, 90 mg/kg/day, Day 91
property measured: Cmax (ng/mL)
Kindly provide the numeric value in ng/mL only, without the unit symbol.

Q: Consider the molecule shown here: O=C1CC[C@H](N2Cc3cc(N4CCN(CC5CCN(c6ccc([C@@H]7c8ccc(O)cc8CC[C@@H]7c7ccccc7)cc6)CC5)CC4)ccc3C2=O)C(=O)N1 [Compound A] What is its recorded Cmax?
A: 4250

----------
Assay: Tissue distribution in rat
Type: in vivo
Details: lung, 100 mg/kg/day PO 3 days, read-out: tissue plasma ratio, lung
property measured: Kp at 3 days

Q: Consider the molecule shown here: O=C1CC[C@H](N2Cc3cc(N4CCN(CC5CCN(c6ccc([C@@H]7c8ccc(O)cc8CC[C@@H]7c7ccccc7)cc6)CC5)CC4)ccc3C2=O)C(=O)N1 What is its recorded Kp at 3 days?
A: 5.6 to 13.9

----------
Experiment: Plasma protein binding, dog
Assay type: in vitro ADME
Conditions: read-out: free fraction
property measured: fraction unbound at 1 μM
I only need the number, thanks.

Q: Consider the molecule shown here: O=C1CC[C@H](N2Cc3cc(N4CCN(CC5CCN(c6ccc([C@@H]7c8ccc(O)cc8CC[C@@H]7c7ccccc7)cc6)CC5)CC4)ccc3C2=O)C(=O)N1 What is its recorded fraction unbound at 1 μM?
A: 0.026

----------
Assay: clinical
Conditions: human, in vivo, 360 mg
half-life values for the compounds below.
Kindly provide the numeric value in h only, without the unit symbol.

INSERT INTO results (compound, property_measured, reported_measurement) VALUES
  ('O=C1CC[C@@H](N2Cc3cc(N4CCN(CC5CCN(c6ccc([C@@H]7c8ccc(O)cc8CC[C@@H]7c7ccccc7)cc6)CC5)CC4)ccc3C2=O)C(=O)N1 [Compound B]', 'half-life', 96);

We next turn to a different compound, shown below.
Q: Consider the compound shown here: O=C1CC[C@H](N2Cc3cc(N4CCN(CC5CCN(c6ccc([C@@H]7c8ccc(O)cc8CC[C@@H]7c7ccccc7)cc6)CC5)CC4)ccc3C2=O)C(=O)N1 [Compound A] What is its recorded half-life?
A: 28

----------
Assay: 28-day GLP oral toxicity study in dogs
Format: in vivo
Conditions: in vivo; dog, 28 days oral
property measured: NOAEL at 28 days (mg/kg/day)
Kindly provide the numeric value in mg/kg/day only, without the unit symbol.

Q: Consider the molecule shown here: O=C1CC[C@H](N2Cc3cc(N4CCN(CC5CCN(c6ccc([C@@H]7c8ccc(O)cc8CC[C@@H]7c7ccccc7)cc6)CC5)CC4)ccc3C2=O)C(=O)N1 What is its recorded NOAEL at 28 days?
A: 90

----------
Test: GLP cardiovascular telemetry study in beagle dogs with TK phase
Format: in vivo, dog
Conditions: both sexes, beagle, plasma; dog n=8, 400 mg/kg single oral, TK phase
Procedure: A lead-in single-dose TK and tolerability study conducted prior to the telemetry study indicated approximately dose-proportional increase in exposure between 200 and 400 mg/kg in the dog.
property measured: Tmax (h)
Kindly provide the numeric value in h only, without the unit symbol.

Q: Consider the compound shown here: O=C1CC[C@H](N2Cc3cc(N4CCN(CC5CCN(c6ccc([C@@H]7c8ccc(O)cc8CC[C@@H]7c7ccccc7)cc6)CC5)CC4)ccc3C2=O)C(=O)N1 [Compound A] What is its recorded Tmax?
A: 5.1

----------
Test: Caco-2 bidirectional permeability
Assay type: in vitro ADME
Details: human, Caco-2; 1.125 pM; read-out: permeability basolateral to apical
property measured: Papp B→A at 1.125 pM (×10⁻⁶ cm/s)
Kindly provide the numeric value in ×10⁻⁶ cm/s only, without the unit symbol.

Q: Consider the molecule shown here: O=C1CC[C@H](N2Cc3cc(N4CCN(CC5CCN(c6ccc([C@@H]7c8ccc(O)cc8CC[C@@H]7c7ccccc7)cc6)CC5)CC4)ccc3C2=O)C(=O)N1 What is its recorded Papp B→A at 1.125 pM?
A: 0.08

----------
Assay: 3-month GLP oral toxicity study in rats
Assay type: in vivo, rat
Conditions: male, rat, in vivo, po, 300 mg/kg/day
property measured: AUC(0-t) (µg·h/mL)
Kindly provide the numeric value in µg·h/mL only, without the unit symbol.

Q: Consider the compound shown here: O=C1CC[C@H](N2Cc3cc(N4CCN(CC5CCN(c6ccc([C@@H]7c8ccc(O)cc8CC[C@@H]7c7ccccc7)cc6)CC5)CC4)ccc3C2=O)C(=O)N1 What is its recorded AUC(0-t)?
A: 88.5

----------
Experiment: 3-month GLP oral toxicity study in dogs
Assay type: in vivo, dog
Conditions: Beagle, dog, in vivo, oral; male dogs, 3 months
property measured: NOAEL at 3 months (mg/kg/day)
Kindly provide the numeric value in mg/kg/day only, without the unit symbol.

Q: Consider the compound shown here: O=C1CC[C@H](N2Cc3cc(N4CCN(CC5CCN(c6ccc([C@@H]7c8ccc(O)cc8CC[C@@H]7c7ccccc7)cc6)CC5)CC4)ccc3C2=O)C(=O)N1 What is its recorded NOAEL at 3 months?
A: 90

----------
Test: clinical
Conditions: human, in vivo, 500 mg, Tmax
Tmax values for the compounds below.
Kindly provide the numeric value in h only, without the unit symbol.

INSERT INTO assay_data (compound, property_measured, reported_measurement) VALUES
  ('O=C1CC[C@@H](N2Cc3cc(N4CCN(CC5CCN(c6ccc([C@@H]7c8ccc(O)cc8CC[C@@H]7c7ccccc7)cc6)CC5)CC4)ccc3C2=O)C(=O)N1 [Compound B]', 'Tmax', 7.8);

We next turn to a different compound, shown below.
Q: Consider the compound shown here: O=C1CC[C@H](N2Cc3cc(N4CCN(CC5CCN(c6ccc([C@@H]7c8ccc(O)cc8CC[C@@H]7c7ccccc7)cc6)CC5)CC4)ccc3C2=O)C(=O)N1 [Compound A] What is its recorded Tmax?
A: 4.9

----------
Test: Plasma protein binding, rat
Assay type: in vitro ADME
Conditions: read-out: free fraction
property measured: fraction unbound at 1 μM
I only need the number, thanks.

Q: Consider the compound shown here: O=C1CC[C@H](N2Cc3cc(N4CCN(CC5CCN(c6ccc([C@@H]7c8ccc(O)cc8CC[C@@H]7c7ccccc7)cc6)CC5)CC4)ccc3C2=O)C(=O)N1 [Compound A] What is its recorded fraction unbound at 1 μM?
A: 0.082

----------
Test: clinical
Details: human, in vivo, 360 mg, Tmax
Tmax values for the compounds below.
# do not omit the unit; it follows the number

Q: Consider the compound shown here: O=C1CC[C@@H](N2Cc3cc(N4CCN(CC5CCN(c6ccc([C@@H]7c8ccc(O)cc8CC[C@@H]7c7ccccc7)cc6)CC5)CC4)ccc3C2=O)C(=O)N1 What is its recorded Tmax?
A: 7.8 h

Q: Similarly, O=C1CC[C@H](N2Cc3cc(N4CCN(CC5CCN(c6ccc([C@@H]7c8ccc(O)cc8CC[C@@H]7c7ccccc7)cc6)CC5)CC4)ccc3C2=O)C(=O)N1 ?
A: 5.8 h

----------
Test: clinical
Conditions: human, in vivo, 120 mg, Cmax
property measured: Cmax
# do not omit the unit; it follows the number

Q: Consider the molecule shown here: O=C1CC[C@H](N2Cc3cc(N4CCN(CC5CCN(c6ccc([C@@H]7c8ccc(O)cc8CC[C@@H]7c7ccccc7)cc6)CC5)CC4)ccc3C2=O)C(=O)N1 [Compound A] What is its recorded Cmax?
A: 404 ng/mL
